test system: HL-60(TB); test: Antiproliferative activity against human HL-60(TB) cells assessed as inhibition of cell growth at 10 uM measured after 48 hrs by SRB assay relative to control; assay type: functional; conditions: HL-60, 48 h, read-out: GI
measured-attribute: inhibition of growth at 10 µM (%)
One number for each entry, in %.

1) O=C1CC(c2ccccc2)Cc2nc3ccc(Cl)cc3cc21 (stereo not given) | 121
2) O=C1CC(c2ccccc2)Cc2nc3ccc(Br)cc3cc21 (stereo not given) | 128
3) COc1ccc2nc3c(cc2c1)C(=O)CC(c1ccccc1)C3 (stereo not given) | 102
4) O=C1CC(c2ccccc2)Cc2nc3c(Br)cc(Br)cc3cc21 (stereo not given) | 95.4

Now consider a different compound.
Q. Entry COc1ccc2nc3c(cc2c1)C(=O)CC(C(F)(F)F)C3 (stereo not given) : reported inhibition of growth at 10 µM = ?
A. 115

###

test system: UACC-62; assay: Antiproliferative activity against human UACC62 cells assessed as inhibition of cell growth at 10 uM measured after 48 hrs by SRB assay relative to control; format: functional; conditions: UACC-62, 48 h, read-out: GI
Exercise: state measured inhibition of growth at 10 µM for each of the molecules provided.
# number then unit; no other words

# annotated cases, reported inhibition of growth at 10 µM shown
1. O=C1CC(c2ccccc2)Cc2nc3ccc(Br)cc3cc21 (stereo not given) | 63.8%
2. COc1ccc2nc3c(cc2c1)C(=O)CC(c1ccccc1)C3 (stereo not given) | 63.1%
3. COc1ccc2nc3c(cc2c1)C(=O)CC(C(F)(F)F)C3 (stereo not given) | 60.2%
4. O=C1CC(c2ccccc2)Cc2nc3ccc(Cl)cc3cc21 (stereo not given) | 70.7%

Q. Entry O=C1CC(c2ccccc2)Cc2nc3c(Br)cc(Br)cc3cc21 (stereo not given) : reported inhibition of growth at 10 µM = ?
A. 61.7%

###

Exercise: state measured inhibition of growth at 10 µM for each of the compounds provided.
tested on: MDA-MB-468; experiment: Antiproliferative activity against human MDA-MB-468 cells assessed as inhibition of cell growth at 10 uM measured after 48 hrs by SRB assay relative to control; format: functional; settings: MDA-MB-468, 48 h, read-out: GI
One number for each entry, in %.

# annotated cases, reported inhibition of growth at 10 µM shown
1. COc1ccc2nc3c(cc2c1)C(=O)CC(c1ccccc1)C3 (stereo not given) | 31.7
2. O=C1CC(c2ccccc2)Cc2nc3ccc(Cl)cc3cc21 (stereo not given) | 89.8
3. O=C1CC(c2ccccc2)Cc2nc3c(Br)cc(Br)cc3cc21 (stereo not given) | 116
4. COc1ccc2nc3c(cc2c1)C(=O)CC(C(F)(F)F)C3 (stereo not given) | 64.4

Now consider a different compound.
Q. Entry O=C1CC(c2ccccc2)Cc2nc3ccc(Br)cc3cc21 (stereo not given) : reported inhibition of growth at 10 µM = ?
A. 99.7

###

tested on: MOLT-4; assay: Antiproliferative activity against human MOLT4 cells assessed as inhibition of cell growth at 10 uM measured after 48 hrs by SRB assay relative to control; assay type: functional; details: MOLT-4, 48 h, read-out: GI
measured-attribute: inhibition of growth at 10 µM (%)
Numbers only, in %.

# annotated cases, reported inhibition of growth at 10 µM shown
1. COc1ccc2nc3c(cc2c1)C(=O)CC(C(F)(F)F)C3 (stereo not given) | 84.7
2. COc1ccc2nc3c(cc2c1)C(=O)CC(c1ccccc1)C3 (stereo not given) | 82.2
3. O=C1CC(c2ccccc2)Cc2nc3ccc(Br)cc3cc21 (stereo not given) | 89.5
4. O=C1CC(c2ccccc2)Cc2nc3c(Br)cc(Br)cc3cc21 (stereo not given) | 79.2

Now consider a different molecule.
Q. Entry O=C1CC(c2ccccc2)Cc2nc3ccc(Cl)cc3cc21 (stereo not given) : reported inhibition of growth at 10 µM = ?
A. 93.2

Value source: ChEMBL document CHEMBL4627344
